- Test system: Staphylococcus aureus ATCC29213
- TEST SUMMARY: Bacterial growth minimal inhibitory concentration (broth microdilution, CLSI M7-A7)
- Type: cell-based
- STATED CONDITIONS: Staphylococcus aureus, ATCC29213, cation-adjusted Mueller-Hinton Broth, methicillin-sensitive and quinolone-sensitive strain, read-out: MIC for S. aureus ATCC29213
# if measured MIC < 1 µg/mL: rule met  # else: rule not met

Example results:
{"COMPOUND": "COc1ccc(C#N)c(-c2cccc(CNCCc3nn(-c4ccc5c(n4)NC(=O)CO5)c(=O)o3)c2)c1 [Example 52]", "LABEL": "rule met"}
{"COMPOUND": "CNC(=O)COc1cccc(-c2cccc(CNCC[C@H]3CN(c4ccc5c(n4)NC(=O)CO5)C(=O)O3)c2)c1 [Example 78]", "LABEL": "rule met"}
{"COMPOUND": "COc1cnnc(-c2cc(CNCC[C@H]3CN(c4ccc5c(n4)NC(=O)CO5)C(=O)O3)ccc2O)c1 [Example 89]", "LABEL": "rule met"}

In the following, a different compound is considered.
Query: Strictly below 1 µg/mL in MIC? N#Cc1ccc(O)c(-c2cccc(CNCC[C@H]3CN(c4ccc5c(n4)NC(=O)CO5)C(=O)O3)c2)c1 [Example 45]
Response: rule not met

====

Kindly state MIC for each of the entries shown.
- Tested on: Staphylococcus aureus ATCC29213
- TEST SUMMARY: Bacterial growth minimal inhibitory concentration (broth microdilution, CLSI M7-A7)
- Format: cell-based
- STATED CONDITIONS: Staphylococcus aureus, ATCC29213, cation-adjusted Mueller-Hinton Broth, methicillin-sensitive and quinolone-sensitive strain, read-out: MIC for S. aureus ATCC29213

{"MOLECULAR STRING": "N#Cc1cc(O)nc(-c2cccc(CNCC[C@@H]3CN(c4ccc5c(c4)NC(=O)CS5)C(=O)O3)c2)c1", "MIC": "4 µg/mL"}
{"MOLECULAR STRING": "COc1cccc(-c2cccc(CNCC[C@H]3CN(c4ccc5c(n4)NC(=O)CO5)C(=O)O3)c2)c1", "MIC": "0.25 µg/mL"}
{"MOLECULAR STRING": "N#Cc1ccc(-c2cccc(CNCC[C@H]3CN(c4ccc5c(n4)NC(=O)CO5)C(=O)O3)c2)cc1", "MIC": "1 µg/mL"}
{"MOLECULAR STRING": "COc1cccc(-c2cncc(CNCC[C@H]3CN(c4ccc5c(n4)NC(=O)CO5)C(=O)O3)n2)c1", "MIC": "0.25 µg/mL"}
{"MOLECULAR STRING": "COc1cnnc(-c2cccc(CNCC[C@@H]3CN(c4ccc5c(c4)NC(=O)CS5)C(=O)O3)c2)c1", "MIC": "0.125 µg/mL"}
{"MOLECULAR STRING": "N#Cc1cccc(-c2cc(CNCC[C@H]3CN(c4ccc5c(n4)NC(=O)CO5)C(=O)O3)ccn2)c1", "MIC": "0.5 µg/mL"}
{"MOLECULAR STRING": "O=C1COc2ccc(N3C[C@H](CCNCc4cccc(-c5cccc(O)c5)c4)OC3=O)nc2N1", "MIC": "1 µg/mL"}
{"MOLECULAR STRING": "COc1cccc(-c2cc(CNCC[C@H]3CN(c4ccc5c(n4)NC(=O)CO5)C(=O)O3)cnn2)c1", "MIC": "4 µg/mL"}
{"MOLECULAR STRING": "COc1cccc(-c2cccc(CNCCc3nn(-c4ccc5c(n4)NC(=O)CO5)c(=O)o3)c2O)n1", "MIC": "0.125 µg/mL"}
{"MOLECULAR STRING": "N#Cc1ccc(O)c(-c2cc(CNCC[C@@H]3CN(c4ccc5c(c4)NC(=O)CS5)C(=O)O3)ccn2)c1", "MIC": "≤ 0.016 µg/mL"}

Working through the 6 compounds below one at a time, give MIC for each.
1. COc1cc(-c2cccc(CNCC[C@H]3CN(c4ccc5c(n4)NC(=O)CO5)C(=O)O3)c2)cnn1
2. COc1cccc(-c2cncc(CNCC[C@@H]3CN(c4ccc5c(c4)NC(=O)CS5)C(=O)O3)c2)c1
3. N#Cc1cccc(-c2cccc(CNCCc3cn(-c4ccc5c(n4)NC(=O)CO5)c(=O)o3)c2)c1
4. COc1cccc(-c2ccnc(CNCC[C@@H]3CN(c4ccc5c(c4)NC(=O)CS5)C(=O)O3)c2)c1
5. COc1cccc(-c2nccc(CNCC[C@H]3CN(c4ccc5c(n4)NC(=O)CO5)C(=O)O3)n2)c1
6. COc1ccc(C#N)c(-c2cccc(CNCC[C@H]3CN(c4ccc5c(n4)NC(=O)CO5)C(=O)O3)c2)c1

Response:
1. 2 µg/mL
2. 0.5 µg/mL
3. 0.063 µg/mL
4. 0.125 µg/mL
5. 0.25 µg/mL
6. 0.063 µg/mL

Give measured MIC for every item shown.
1. COc1cc(-c2cccc(CNCC[C@H]3CN(c4ccc5c(n4)NC(=O)CO5)C(=O)O3)c2)ccn1
2. COc1cnnc(-c2cccc(CNCC[C@@H]3CN(c4ccc5c(n4)NC(=O)CO5)C(=O)O3)c2)c1
3. COc1cccc(-c2cccc(CNCC[C@@H]3CN(c4ccc5c(c4)NC(=O)CS5)C(=O)O3)c2)c1

Response:
["2 µg/mL", "0.25 µg/mL", "0.25 µg/mL"]

Please state MIC for every compound in the list that follows.
1. COc1cc(OC)nc(-c2cccc(CNCC[C@@H]3CN(c4ccc5c(c4)NC(=O)CS5)C(=O)O3)c2)n1
2. COc1cccc(-c2cccc(CNCCc3nn(-c4ccc5c(n4)NC(=O)CO5)c(=O)o3)c2)n1

Response:
["0.063 µg/mL", "0.5 µg/mL"]

Batch request: MIC per item, same order as input.
1. N#Cc1cccc(-c2cccc(CNCC[C@@H]3CN(c4ccc5c(c4)NC(=O)CS5)C(=O)O3)c2)n1
2. N#Cc1cccc(-c2cccc(CNCC[C@H]3CN(c4ccc5c(n4)NC(=O)CO5)C(=O)O3)c2O)n1
3. CCOc1cncc(-c2cccc(CNCC[C@H]3CN(c4ccc5c(n4)NC(=O)CO5)C(=O)O3)c2)c1

Response:
1: 0.25 µg/mL; 2: 0.031 µg/mL; 3: 0.25 µg/mL

Could you tell me MIC for each of these compounds? They are listed below.
1. COc1cccc(-c2cc(CNCC[C@@H]3CN(c4ccc5c(c4)NC(=O)CS5)C(=O)O3)ccn2)c1
2. COc1cnnc(-c2cccc(CNCCc3nn(-c4ccc5c(n4)NC(=O)CO5)c(=O)o3)c2)c1

Response:
1 µg/mL
2 µg/mL

Provide MIC for all items below, preserving their order.
1. COc1cncc(-c2cccc(CNCC[C@@H]3CN(c4ccc5c(c4)NC(=O)CS5)C(=O)O3)c2)c1
2. COc1ccc(-c2cccc(CNCC[C@@H]3CN(c4ccc5c(c4)NC(=O)CS5)C(=O)O3)c2)cc1
3. COc1nc(OC)nc(-c2cccc(CNCC[C@@H]3CN(c4ccc5c(c4)NC(=O)CS5)C(=O)O3)c2)n1
4. COc1cnnc(-c2cccc(CNCC[C@@H]3CN(c4ccc5c(n4)NC(=O)CS5)C(=O)O3)c2)c1

Response:
1: 0.063 µg/mL; 2: 1 µg/mL; 3: 0.25 µg/mL; 4: 0.25 µg/mL

====

- Tested on: Staphylococcus aureus ATCC29213
- TEST SUMMARY: Bacterial growth minimal inhibitory concentration (broth microdilution, CLSI M7-A7)
- Assay type: cell-based
- STATED CONDITIONS: Staphylococcus aureus, ATCC29213, cation-adjusted Mueller-Hinton Broth, methicillin-sensitive and quinolone-sensitive strain, read-out: MIC for S. aureus ATCC29213
READOUT KIND: MIC (µg/mL)
One number for each entry, in µg/mL.

{"MOLECULAR STRING": "N#Cc1cccc(-c2cccc(CNCCc3cn(-c4ccc5c(n4)NC(=O)CO5)c(=O)o3)c2O)n1", "MIC [µg/mL]": 0.031}
{"MOLECULAR STRING": "N#CC1(COc2cccc(-c3cccc(CNCC[C@H]4CN(c5ccc6c(n5)NC(=O)CO6)C(=O)O4)c3)c2)CCC1", "MIC [µg/mL]": 1}
{"MOLECULAR STRING": "O=C1COc2ccc(N3C[C@H](CCNCc4cccc(-c5cccc(OCC6CCC6)c5)c4)OC3=O)nc2N1", "MIC [µg/mL]": 4}
{"MOLECULAR STRING": "COc1cc(-c2cccc(CNCC[C@H]3CN(c4ccc5c(n4)NC(=O)CO5)C(=O)O3)c2)ccc1C#N", "MIC [µg/mL]": 0.5}
{"MOLECULAR STRING": "COc1cnnc(-c2cccc(CNCCc3cn(-c4ccc5c(n4)NC(=O)CO5)c(=O)o3)c2)c1", "MIC [µg/mL]": 0.063}
{"MOLECULAR STRING": "COc1ccc(C#N)c(-c2cccc(CNCC[C@@H]3CN(c4ccc5c(n4)NC(=O)CO5)C(=O)O3)c2)c1", "MIC [µg/mL]": 0.125}
{"MOLECULAR STRING": "COc1cccc(-c2cc(CNCC[C@H]3CN(c4ccc5c(n4)NC(=O)CO5)C(=O)O3)ccn2)n1", "MIC [µg/mL]": 0.125}
{"MOLECULAR STRING": "COc1cc(-c2cccc(CNCC[C@@H]3CN(c4ccc5c(c4)NC(=O)CS5)C(=O)O3)c2)ccc1C(N)=O", "MIC [µg/mL]": 1}

# batch size: 5; output MIC per entry
1. COc1cnnc(-c2cccc(CNCC[C@H]3CN(c4ccc5c(c4)NC(=O)CO5)C(=O)O3)c2)c1
2. N#Cc1cccc(-c2cccc(CNCC[C@H]3CN(c4ccc5c(c4)NC(=O)CO5)C(=O)O3)c2)c1
3. COc1cc(C#N)cc(-c2cccc(CNCC[C@@H]3CN(c4ccc5c(c4)NC(=O)CS5)C(=O)O3)c2)c1
4. N#Cc1cc(-c2cccc(CNCC[C@H]3CN(c4ccc5c(n4)NC(=O)CO5)C(=O)O3)c2)cnn1
5. COc1cccc(-c2cccc(CNCC[C@H]3CN(c4ccc5c(c4)NC(=O)CO5)C(=O)O3)c2O)n1

Response:
1. 0.5
2. 0.5
3. 0.031
4. 2
5. 0.063
